Just for reference, PubChem BioAssay (NCI) is where these values come from.

# System: UACC-62 melanoma
# method: NCI tumour cell line growth inhibition, 48 h
measure: TGI

Give TGI for `N#CCCN(CCC#N)c1ccc(/C=C2\SC(=S)NC2=O)cc1` > 100 µM

Give TGI for `Cn1c(=O)c2c(nc3n2CCC(=O)N3CCCCl)n(C)c1=O` > 100 µM

Give TGI for CC(=O)O[C@@]12CO[C@@H]1C[C@H](O)[C@@]1(C)C(=O)[C@H](O)C3=C(C)[C@@H](OC(=O)[C@H](O)[C@@H](NC(=O)OC(C)(C)C)c4ccccc4)C[C@@](O)([C@@H](OC(=O)c4ccccc4)C12)C3(C)C (stereo partly drawn) 33.7 µM

Give TGI for COc1cccc2c1C(=O)c1c(O)c3c(c(O)c1C2=O)C[C@@](O)(C(=O)CN1CCOCC1)C[C@@H]3OC1CC(N)C(O)C(C)O1 (stereo partly drawn) 15.7 µM

Give TGI for `O=C1OC(c2ccccc2)(c2ccccc2)c2ccc3ccc(F)cc3c21` > 100 µM

---

Property: GI50; scope: individual compounds
# Test system: MCF7 breast
# method: NCI tumour cell line growth inhibition, 48 h

Examples with their reported GI50 follow.
COc1cc(OC)cc(-c2nc3sccn3c2/C=N/N=C(N)N)c1 :: 9.41 µM
O=P(O)(O)OCC1OC(n2cnc3c(NCc4ccco4)ncnc32)C(O)C1O (stereo not drawn) :: 0.776 µM

With those in mind, consider the next compound.
Give GI50 for `c1cc(CN2CCCNCCNCCCNCC2)ccc1CN1CCCNCCNCCCNCC1` > 100 µM

---

# Test system: NCI-H23 lung
# method: NCI tumour cell line growth inhibition, 48 h
measure: GI50

Examples with their reported GI50 follow.
COc1cccc(-n2ncc3c(N/N=C/c4ccc(C)cc4)ncnc32)c1 :: > 25 µM
CCCCC[C@H]1CC=C2C(=O)C=C[C@@H]2CC=CCCCC(=O)O[C@@H](CCCCC)CC=C2C(=O)C=C[C@@H]2CC=CCCCC(=O)O[C@@H](CCCCC)CC=C2C(=O)C=C[C@@H]2CC=CCCCC(=O)O1 :: 0.3 µM
COc1ccc(C(C#N)=C2C=CC(=NO)C=C2)cc1 :: 12.8 µM
C=C(C)[C@@H]1C/C=C(/CO)CC[C@H]2O[C@]2(C)CC/C=C(\C)CC1 :: 20.7 µM
C=C1C(=O)O[C@H]2[C@H]1CC/C(COC(=O)c1cn(C)c3ccccc13)=C\CC[C@@]1(C)O[C@@H]21 :: 1.93 µM

Give GI50 for `COc1cc2c3c(n(CCCCNC(=O)OC(C)(C)C)c(=O)c2cc1OC)-c1cc2c(cc1C3=O)OCO2` > 100 µM

Give GI50 for `Nc1ncnc2c1c(-c1ccc(Oc3ccccc3)cc1)nn2C[C@H]1SSC[C@@H]1O` 0.83 µM

Give GI50 for `O=C1CSC(c2ccc(-c3nc4ccccc4[nH]3)cc2)=N1` 47.4 µM

---

# System: COLO 205 colon
# method: NCI tumour cell line growth inhibition, 48 h; in the data active = GI50 below about 0.43 µM; inactive = the rest
*1 amine or outer side, *2 acyl side, *3 side chain or, on linkers, in order; H or OH if unused. Where a SMILES comes first, the peptide text is derived from it. Bridges are numbered along the chain shown (N, C = ends). Roman numbers before positions name the chains, in order. [ ]: non-standard residue; d: D form. Actinocin(9to1) = Cc1c2oc3c(C)ccc(C(=O)[*:1])c3nc-2c(C(=O)[*:2])c(N)c1=O; NMeV = CN[CH](C(=O)O)C(C)C; Sar = CNCC(=O)O
Output constraint: value belongs to active, inactive

Field: example entries. Status: answers known.
Cc1ccc2[nH]c3c(c2c1)N=c1ccccc1=NO3 :: inactive
Clc1ccccc1[C@@H]1C[C@@H]2Cc3cc(Br)c4ccccc4c3N1O2 :: inactive
COc1cccc(OC(=O)c2ccc(C(F)(F)F)nc2Nc2c(C)cccc2Cl)c1 :: inactive
CCCCNCCC(O)c1cc2ccc(C(F)(F)F)cc2c2cc(C(F)(F)F)ccc12 (configuration not stated) :: active
c1ccc2cc(Cn3cc[n+](Cc4ccc5ccccc5c4)c3)ccc2c1 :: active

What classification did COc1ccc(-c2nsc3c2NC(=O)CC3c2ccc3c(c2)OCCO3)cc1 (configuration not stated) end up with in this test? inactive

What classification did `c1cc(CN2CCCNCCNCCCNCC2)ccc1CN1CCCNCCNCCCNCC1` end up with in this test? inactive

What classification did `COc1cc(OC)c(/C=C/C(=O)c2ccc(Nc3ncnc4ccccc34)cc2)c(OC)c1` end up with in this test? inactive

What classification did `COc1ccc(OC)c(NC(=O)c2cccc(NC3=C(Cl)C(=O)N(Cc4ccccc4)C3=O)c2)c1` end up with in this test? inactive

What classification did `COC12C=C/C(=C(/C(=O)OCCSc3ccnn3C)C(=O)CCCCCCCCC3(OC)C=C/C(=C(/C(=O)OCCSc4ccnn4C)C(=O)CCCCCCCC1)O3)O2` end up with in this test? inactive

What classification did `CN(C)C[C@H]1CCn2c(c(C3=C(c4cn(C)c5ccccc45)C(=O)NC3=O)c3ccccc32)C1` end up with in this test? inactive

What classification did `O=C1Nc2ccccc2/C1=C\c1cccc(/C=C2/C(=O)Nc3ccccc32)n1` end up with in this test? active

What classification did `COc1ccc(C(C#N)=C2C=CC(=NO)C=C2)cc1` end up with in this test? inactive

What classification did `C=C(C)[C@@H]1CC[C@]2(COCCCNCCCN)CC[C@]3(C)[C@H](CC[C@@H]4[C@@]5(C)CC[C@H](OCCCN)C(C)(C)[C@@H]5CC[C@]43C)[C@@H]12` end up with in this test? inactive

What classification did `N#Cc1ccc(CSc2ncnc3nc[nH]c23)cc1` end up with in this test? inactive

What classification did Cc1c2oc3c(C)ccc(C(=O)OC(C)C4NC(=O)C(C(C)C)N(C)C(=O)CN(C)C(=O)C5CCCN5C(=O)C(C(C)C)NC4=O)c3nc-2c(C(=O)OC(C)C2NC(=O)C(C(C)C)N(C)C(=O)CN(C)C(=O)C3CCCN3C(=O)C(C(C)C)NC2=O)c(N)c1=O (configuration not stated) (I: cyclo([Sar][NMeV]TVP) / II: cyclo([Sar][NMeV]TVP); linker I:3-II:3 via Actinocin(9to1); configuration not given here) end up with in this test? active

What classification did `CC(C)=O.O=C([O-])C(F)(F)F.O=C([O-])C(F)(F)F.O=C([O-])C(F)(F)F.O=C([O-])C(F)(F)F.[Rh+2].[Rh+2]` end up with in this test? inactive
